IC50 values for the molecules below.
target: Farnesyl-protein transferase (Ftase) (Bos taurus, UniProt P29702+P49355); construct: Farnesyl-protein transferase (Ftase) from bovine brain was chromatographed on DEAE-Sephacel; from tissue; host or cells: bovine brain, partially purified (DEAE-Sephacel, N-octyl agarose, mono Q); assay: RASIT ASSAY II: inhibition of Ras farnesylation in vitro; type: biochemical, bovine; settings: Ras-CVLS 1.0 μM, 0.5 μM [3H]FPP
Report the value in µM with no unit label.

Any idea what its IC50 is? The molecule is C=C(CC[C@]12O[C@H](C(=O)O)[C@@](O)(C(=O)O)[C@](C(=O)O)(O1)[C@H](OC(=O)NCCCCCCCCCCCOc1ccccc1)[C@H]2O)[C@@H](OC(C)=O)[C@H](C)Cc1ccccc1 [Compound 5u]
0.027

Any idea what its IC50 is? The molecule is C=C(CC[C@]12O[C@H](C(=O)O)[C@@](O)(C(=O)O)[C@](C(=O)O)(O1)[C@H](OC(=O)/C=C/[C@@H](C)C[C@@H](C)CC)[C@H]2O)[C@@H](OC(=O)c1ccccc1)[C@H](C)Cc1ccccc1 [Compound 7d]
0.052

Any idea what its IC50 is? The molecule is C=C(CC[C@]12O[C@H](C(=O)O)[C@@](O)(C(=O)O)[C@](C(=O)O)(O1)[C@H](OC(=O)OCCCCCCCCCCCOc1ccccc1)[C@H]2O)[C@@H](OC(C)=O)[C@H](C)Cc1ccccc1 [Compound 5y]
0.027

Okay, next one:
Any idea what its IC50 is? The molecule is CC[C@H](C)C[C@H](C)/C=C/C(=O)O[C@@H]1[C@@H](O)[C@@]2(CCCOC(=O)CCCc3ccccc3)O[C@H](C(=O)O)[C@@](O)(C(=O)O)[C@]1(C(=O)O)O2 [Compound 39e, 39-4-phenylbutyrate ester]
0.019
